Please go through the items and note down their RP-LC retention time.
test: gradient 5% acetonitrile 3 min, to 50% in 2 min, to 85% in 15 min, held 3 min, 100 µL/min; details: column: Zorbax Extend-C18 2.1 x 50 mm; eluents: water / acetonitrile, 0.1% formic acid
Answers are plain numbers, in s.

{"molecule": "CCN1CCN(C(=O)c2cc3n(n2)CC(C)(C(=O)NC2CCCCCC2)N(C)C3=O)CC1 (stereo not given)", "measured_property": "RP-LC retention time", "units_text": "s", "recorded_measurement": 611}
{"molecule": "O=C(NCCCN1CCCC1=O)C1CCN(c2cncnc2N2CCCCC2)CC1", "measured_property": "RP-LC retention time", "units_text": "s", "recorded_measurement": 582}
{"molecule": "CC(=O)N1CCc2c([nH]c3ccccc23)C12C(=O)N(CCC(C)C)c1ccc(Br)cc12 (stereo not given)", "measured_property": "RP-LC retention time", "units_text": "s", "recorded_measurement": 1040}

// for each molecule in input: emit RP-LC retention time
1. Cc1cc2nc(CN3CCN(Cc4ccccc4)CC3)c(=O)[nH]c2cc1C
2. O=C(Cc1cccc(F)c1)N1CCCCC1c1nncn1CC1CC1 (stereo not given)

Result:
1. 620
2. 677

----------
experiment: gradient 5% acetonitrile 3 min, to 50% in 2 min, to 85% in 15 min, held 3 min, 100 µL/min; conditions: column: Zorbax Extend-C18 2.1 x 50 mm; eluents: water / acetonitrile, 0.1% formic acid
Category | rule: reported RP-LC retention time within range, see bottom end = under 700 s, midrange = from 700 s up to 900 s, top end = 900 s and over

Below are worked cases with known answers.
{"compound": "COc1ccc(C2Cn3nnc(-c4nc(-c5ccc(F)c(Br)c5)no4)c3CO2)cc1 (stereo not given)", "assigned_category": "top end"}
{"compound": "COc1cccc(N2CCN(S(=O)(=O)c3cc4[nH]c(=O)[nH]c4cc3C)CC2)c1", "assigned_category": "midrange"}
{"compound": "Cc1cc(C)cc(C(=O)N2CCCC(C(=O)NC3CCCCCC3)C2)c1 (stereo not given)", "assigned_category": "top end"}
{"compound": "O=C(O)c1nnn(-c2cccc(F)c2)c1C(F)(F)F", "assigned_category": "midrange"}
{"compound": "CCOC(=O)c1noc2nc(C)nc(NCC3CCN(Cc4ccccc4F)CC3)c12", "assigned_category": "bottom end"}

Problem: Given Cn1cc(CCN2CCC(C(=O)NCc3cccc(F)c3)CC2)c2cccnc21 , name the class its RP-LC retention time places it in.
Result: bottom end

----------
experiment: gradient 5% acetonitrile 3 min, to 50% in 2 min, to 85% in 15 min, held 3 min, 100 µL/min; details: column: Zorbax Extend-C18 2.1 x 50 mm; eluents: water / acetonitrile, 0.1% formic acid
Decide using RP-LC retention time: a value greater than or equal to 900 s is YES, a smaller one is NO.

{"molecule": "Cc1cc(C)cc(NS(=O)(=O)c2ccc(-c3c(C)noc3C)cc2)c1", "assigned_category": "YES"}
{"molecule": "CCOc1ccccc1C(=O)NC1CCN(C(=O)c2cn[nH]c2-c2ccc(F)cc2)CC1", "assigned_category": "NO"}
{"molecule": "Cc1ccc(NC(=O)c2c(O)c3cccnc3n(-c3ccc(F)cc3)c2=O)c(F)c1", "assigned_category": "YES"}

Problem: # bool: RP-LC retention time of COc1ncccc1CNS(=O)(=O)c1ccc(C)cc1 >= 900 s
Result: NO

Problem: # bool: RP-LC retention time of Cc1ccc(-n2ncc3c(N4CCN(CCO)CC4)ncnc32)cc1Cl >= 900 s
Result: NO

Problem: # bool: RP-LC retention time of COC1CCC12CCN(S(=O)(=O)c1ccc(C)cc1)CC2 (centres undefined) >= 900 s
Result: YES

Problem: # bool: RP-LC retention time of CCOc1ccc(NC(=O)N2CC(=O)N(CC(=O)N3CCC(C(N)=O)CC3)c3ccccc32)cc1 >= 900 s
Result: NO

Problem: # bool: RP-LC retention time of CSc1nc2nc3c(cn2n1)C(=O)CC(C)C3 (centres undefined) >= 900 s
Result: NO

Problem: # bool: RP-LC retention time of Cc1nn(-c2cc(N3CCCCC3)ncn2)c(C)c1CCC(=O)N1CCN(c2ccccn2)CC1 >= 900 s
Result: NO

Problem: # bool: RP-LC retention time of Cc1cccc(CNC(=O)Cn2c(=O)c3nnc(C)n3c3ncccc32)c1 >= 900 s
Result: NO

Problem: # bool: RP-LC retention time of CCOC(=O)CCNC(=O)NCc1nnnn1-c1ccc(C)c(C)c1 >= 900 s
Result: NO

----------
Please go through the items and note down their RP-LC retention time.
assay: gradient 5% acetonitrile 3 min, to 50% in 2 min, to 85% in 15 min, held 3 min, 100 µL/min; conditions: column: Zorbax Extend-C18 2.1 x 50 mm; eluents: water / acetonitrile, 0.1% formic acid
Number plus unit, in that order.

{"compound": "COc1cc(F)ccc1-c1ccnc2nc(C(C)C)nn12", "recorded_measurement": "842 s"}
{"compound": "COC(=O)c1cccc(N2C=C(C#N)S(=O)(=O)c3ccc(Cl)cc32)c1", "recorded_measurement": "930 s"}
{"compound": "COc1ccc(CNC(=O)c2[nH]c3cc(C)sc3c2CN(C)C)cc1OC", "recorded_measurement": "641 s"}
{"compound": "Cc1noc(C)c1S(=O)(=O)NCCn1c(C)cnc1-c1ccccc1", "recorded_measurement": "616 s"}
{"compound": "O=C(CC(=O)N1CCN(C2CCCCC2)CC1)Nc1ccc2nc3n(c(=O)c2c1)CCCCC3", "recorded_measurement": "554 s"}
{"compound": "Cc1cc(Cl)ccc1NC(=O)c1cc(C2CC2)on1", "recorded_measurement": "1040 s"}
{"compound": "O=C(Cn1nc2c(cc1=O)CCCC2)N[C@@H](Cc1ccccc1)C(=O)O", "recorded_measurement": "682 s"}
{"compound": "COc1ccc(N2CCN(C(=O)C3CCCN(c4nnc5cccc(C)n45)C3)CC2)cc1 (centres undefined)", "recorded_measurement": "661 s"}

// for each compound in input: emit RP-LC retention time
1. Cc1ccc(NC(=O)C2CCN(S(=O)(=O)c3ccc4c(c3)CCCC(=O)N4)CC2)cc1F
2. O=C(Cc1cc(-c2ccc3c(c2)OCO3)on1)NCc1cccnc1
3. Cc1ccc(-n2c(=O)c3c(cc(C)n3C)n(CC(=O)Nc3cc(C)cc(C)c3)c2=O)cc1
4. Cc1noc2nc(C)n(CC(=O)Nc3ccccc3Br)c(=O)c12
5. Cn1c(C(=O)N2CCN(c3ccccc3)CC2)cc2c(=O)oc3ccccc3c21
6. CCc1noc(NC(C)=O)c1-c1ccc(OC)c(S(=O)(=O)Nc2cccc(Cl)c2C)c1
7. CNC(=O)C1CCCN(c2nc3ncn(CC(=O)Nc4ccc(C(F)(F)F)cc4)c(=O)c3s2)C1 (centres undefined)
8. COC(=O)c1c(C)[nH]c(C(=O)N2CCC(CC(=O)N3CCN(c4ccccc4)CC3)CC2)c1C

Result:
["817 s", "573 s", "844 s", "766 s", "905 s", "894 s", "711 s", "775 s"]

// for each compound in input: emit RP-LC retention time
1. CCOc1ccccc1NC(=O)N1CCN(c2ccc(=O)n(-c3ccc(C)cc3)n2)CC1
2. O=C(NC1CC1)c1nc(C(=O)N2CCC3(CC2)OCCO3)cs1
3. Cc1nc(CSCC(=O)Nc2ccc(Cl)cc2)cs1
4. CCOC(=O)CN1CCC(c2nnc(-c3ccc(F)cc3)o2)CC1
5. COc1ccc2c(c1)c(CN1CCCCCCN(C)C(=O)[C@@H]3CCC[C@@H]31)cn2C
6. COC(=O)Cn1nc2c(-c3nc(-c4ccc(Cl)cc4)no3)cccn2c1=O
7. CCc1cc(=O)n(CC(=O)Nc2ccc(C)cc2Cl)c(N2CCOCC2)n1

Result:
1. 915 s
2. 649 s
3. 778 s
4. 555 s
5. 721 s
6. 911 s
7. 942 s

// for each compound in input: emit RP-LC retention time
1. COc1ccccc1C(=O)NC1CCN(c2cc(-c3cccs3)[nH]n2)C1 (centres undefined)
2. Cc1ccn2cc(-c3ccc(NC(=O)c4ccccc4[N+](=O)[O-])cc3)nc2n1
3. COc1ccccc1-c1nnc(N)s1
4. COc1ccccc1N1CCN(c2cc(SCC(=O)NCc3ccc(Cl)cc3)ncn2)CC1

Result:
["717 s", "622 s", "598 s", "1110 s"]

// for each compound in input: emit RP-LC retention time
1. O=C(NCc1ccc(Br)cc1)C(=O)c1c[nH]c2ccccc12
2. Cn1nccc1-c1cccc(-c2noc(-c3cncc(Br)c3)n2)c1
3. COc1ccc(N2CCN(CC(O)COc3c(C)cccc3C)CC2)cc1 (centres undefined)
4. O=C(Cn1c(=O)cc(-c2nc(C3CC3)no2)c2ccccc21)Nc1ccccc1

Result:
1: 995 s; 2: 1100 s; 3: 698 s; 4: 937 s

// for each compound in input: emit RP-LC retention time
1. COc1cccc2c1OC1(C)CC2C(S(=O)(=O)c2ccc(C)c(C)c2)C(=O)N1 (centres undefined)
2. O=C(Nc1ccc(Br)cc1F)C1CCCN(c2cc(-n3cccn3)ncn2)C1 (centres undefined)

Result:
["888 s", "967 s"]

// for each compound in input: emit RP-LC retention time
1. COC(=O)c1c(C)[nH]c(C(=O)N2CCCC(C(=O)NC3CCCCC3)C2)c1C (centres undefined)
2. Cc1oc(C2CCN(C(=O)Nc3ccc(F)cc3F)CC2)nc1C(=O)N1CCOCC1

Result:
1. 759 s
2. 680 s

// for each compound in input: emit RP-LC retention time
1. O=C1CSC(c2cccs2)N1c1nncs1 (centres undefined)
2. Cc1noc(-c2nn(C)c3c2CN(C(=O)Nc2ccccc2Cl)CC3)n1
3. O=S(=O)(NCCc1c[nH]c2ncccc12)c1ccc(Br)s1
4. CC(CNC(=O)C1CCN(S(=O)(=O)c2ccc3c(c2)CCCC(=O)N3)CC1)c1ccccc1 (centres undefined)

Result:
804 s
725 s
673 s
766 s
